molecular target: ACK1 (Homo sapiens, UniProt Q07912); construct: a fusion of an N-terminal (His)6 Tag with amino acids 117 to 489 of ACK1; (His)6 (N); experiment: ACK1 Enzymatic Assay (PGT/autophosphorylation ELISA)
Sequence (Q07912 117-489): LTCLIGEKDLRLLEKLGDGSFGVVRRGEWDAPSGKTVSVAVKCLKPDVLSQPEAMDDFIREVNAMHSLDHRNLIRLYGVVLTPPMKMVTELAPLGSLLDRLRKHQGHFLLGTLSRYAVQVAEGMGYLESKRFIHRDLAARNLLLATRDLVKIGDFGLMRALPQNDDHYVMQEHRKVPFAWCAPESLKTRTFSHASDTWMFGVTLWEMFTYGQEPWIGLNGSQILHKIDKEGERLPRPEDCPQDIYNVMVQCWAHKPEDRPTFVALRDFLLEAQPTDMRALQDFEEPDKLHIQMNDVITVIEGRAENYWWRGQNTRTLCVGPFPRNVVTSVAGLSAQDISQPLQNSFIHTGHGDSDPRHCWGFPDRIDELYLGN
Measured attribute: Ki

For Cc1cccc(C)c1Nc1nn(CCCN2CCCC2)c2nc(Nc3ccccc3)ncc12 , what is its reported Ki?
0.01 to 0.1 µM

Fill in the blank: the reported Ki of Cc1cccc(C)c1Nc1nn(CCCN2CCCCC2)c2nc(Nc3ccccc3)ncc12 is ____.
> 0.1 µM

For COC[C@H]1CCCN1CCCn1nc(Nc2c(C)cccc2C)c2ccc(Nc3ccc(N4CCNCC4)cc3)cc21 , what is its reported Ki?
< 0.01 µM

// returns reported Ki for input Cc1cccc(C)c1Nc1nn(CCCN(C)C)c2nc(Nc3ccccc3)ncc12
0.01 to 0.1 µM

What Ki value was documented for this molecule, COC(C)(C)CCn1nc(Nc2c(Cl)cccc2Cl)c2cnc(Nc3ccc(OCCN4CCCC4)c(F)c3)nc21 ?
< 0.01 µM

Recorded Ki of COC(C)(C)CCn1nc(Nc2c(C)cccc2C)c2ccc(Nc3ccccc3)cc21 , please.
< 0.01 µM

Endpoint output: Ki of COC(C)(C)CCn1nc(Nc2c(Cl)cccc2Cl)c2ccc(Nc3ccc(N4CCN(C(=O)OCC5c6ccccc6-c6ccccc65)CC4)cc3)cc21 . Value?
0.01 to 0.1 µM

Can you share its Ki? I mean this molecule: CCN(CC)CCCn1nc(Nc2c(C)cccc2C)c2cnc(Nc3ccccc3)nc21
0.01 to 0.1 µM

Requested read-out: Ki. Entry: Cc1cccc(C)c1Nc1nn(CCN2CCOCC2)c2nc(Nc3ccccc3)ncc12
0.01 to 0.1 µM

# lookup: Ki of CN(C)CCCn1nc(Nc2c(Cl)cccc2Cl)c2cnc(Nc3ccccc3)nc21
< 0.01 µM

State the recorded Ki for this entry: CNc1ncc2c(Nc3c(Cl)cccc3Cl)nn(CCC(C)(C)OC)c2n1
> 0.1 µM

What does the record list as Ki for Cc1cccc(C)c1Nc1nn(CCC(C)O)c2nc(Nc3ccccc3)ncc12 (stereo not drawn) ?
0.01 to 0.1 µM

Consider the molecule shown here: Cc1cccc(C)c1Nc1nn(CC2CCOCC2)c2nc(Nc3ccc(N4CCNCC4)cc3)ncc12 What is its recorded Ki?
< 0.01 µM

Form field: reported Ki of Cc1cccc(C)c1Nc1nn(CCCO)c2nc(Nc3ccccc3)ncc12
0.01 to 0.1 µM

Which Ki is listed for Cc1cccc(C)c1Nc1nn(CCC(O)CN2CCCC2)c2nc(Nc3ccccc3)ncc12 (stereo not drawn) ?
> 0.1 µM

Field request: Ki | item: COCCOc1ccc(Nc2ncc3c(Nc4c(C)cccc4C)nn(CCN4CCOCC4)c3n2)cc1
0.01 to 0.1 µM

# Ki lookup, item Cc1cccc(C)c1Nc1nn(CCC(O)CN(C)C)c2nc(Nc3ccccc3)ncc12 (stereo not drawn)
0.01 to 0.1 µM

Can you share its Ki? I mean this molecule: COC(C)(C)CCn1nc(Nc2c(C)cc(C)cc2C)c2cnc(Nc3ccc(N4CCN(C)CC4)cc3)nc21
0.01 to 0.1 µM

Name the recorded Ki for Cc1cccc(C)c1Nc1nn(CCCN2CCCCC2)c2nc(Nc3ccc(N4CCNCC4)cc3)ncc12 .
0.01 to 0.1 µM

Quick one: Ki of COCCOc1ccc(Nc2ncc3c(Nc4c(C)cccc4C)nn(CCC(C)(C)OC)c3n2)cc1 ?
0.01 to 0.1 µM

Which value of Ki has been reported for CCN(CC)CC(O)CCn1nc(Nc2c(C)cccc2C)c2cnc(Nc3ccccc3)nc21 (stereo not drawn) in the records?
> 0.1 µM

Please look up its Ki: Cc1cccc(C)c1Nc1nn(CC2CCOCC2)c2nc(Nc3ccc(OCCCN4CCCCC4)c(F)c3)ncc12
< 0.01 µM

# get_value(readout='Ki', item= Cc1cccc(C)c1Nc1nn(CCC2COCO2)c2nc(Nc3ccccc3)ncc12 (stereo not drawn) )
0.01 to 0.1 µM

Suppose we examine the molecule CNCCCn1nc(Nc2c(C)cccc2C)c2cnc(Nc3ccccc3)nc21 ; what Ki value has been reported?
0.01 to 0.1 µM

Which Ki reading was recorded for the molecule COC(C)(C)CCn1nc(Nc2c(Cl)cccc2Cl)c2ccc(Nc3ccc(N4CCNCC4)cc3)cc21 ?
0.01 to 0.1 µM

// lookup Ki for COC(C)(C)CCn1nc(Nc2c(C)cc(F)cc2C)c2cnc(Nc3ccccc3)nc21
0.01 to 0.1 µM

I am curious: what Ki value has been reported for C=CCCn1nc(Nc2c(Cl)cccc2Cl)c2cnc(Nc3ccccc3)nc21 ?
0.01 to 0.1 µM

Quick one: Ki for COC(C)(C)CCn1nc(Nc2c(C)cc(C)cc2C)c2cnc(Nc3ccccc3)nc21 ?
> 0.1 µM

For COC(C)(C)CCn1nc(Nc2c(C)cc(F)cc2C)c2cnc(Nc3ccc(N4CCN(C)CC4)cc3)nc21 , what is its reported Ki?
0.01 to 0.1 µM

Recorded Ki for Cc1cccc(C)c1Nc1nn(CCCN2CCCCC2)c2nc(Nc3ccc(N4CCN(C)CC4)cc3)ncc12 , please?
0.01 to 0.1 µM

// query Ki value for entry Clc1cccc(Cl)c1Nc1nn(CCC2CCNCC2)c2nc(Nc3ccccc3)ncc12
0.01 to 0.1 µM

For the molecule OCC(O)CCn1nc(Nc2c(Cl)cccc2Cl)c2cnc(Nc3ccccc3)nc21 (stereo not drawn) , what Ki is on record?
0.01 to 0.1 µM

Give its Ki value. Item: COC(C)(C)CCn1nc(Nc2ccccc2)c2cnc(Nc3ccc(N4CCN(C)CC4)cc3)nc21
> 0.1 µM

The values you see were collected from patent US7763624B2.
